B1: RIPK4 (parent)
chain: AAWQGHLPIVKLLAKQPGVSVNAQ

# Variants of: B1
# PROCEDURE_DETAILS: protein stability index of a GFP-peptide fusion (GPS, HEK-293T) (PSI 1-6); higher = more stable;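 also: lentivirally expressed fusions sorted by FACS into six bins by GFP to DsRed ratio, PSI derived from sequencing read proportions per bin multiplied by bin number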
# STUDY_CONDITIONS: c terminus: a fixed tail appended
Please enter Satisfied where protein stability index is greater than or equal to 2, and Not satisfied where it is lower.

Reference set, count: 8
input_sequence="AAWQGHLPCVKLLAKQPGVSVNAQ [I9C]" label_class=Satisfied
input_sequence="AAWQGHLPIVKLLAKQHGVSVNAQ [P17H]" label_class="Not satisfied"
input_sequence="AAWQGHLPIVKELAKQPGVSVNAQ [L12E]" label_class=Satisfied
input_sequence="AAWQGHLPIEKLLAKQPGVSVNAQ [V10E]" label_class=Satisfied
input_sequence="AAWMGHLPIVKLLAKQPGVSVNAQ [Q4M]" label_class="Not satisfied"
input_sequence="AAWQGHLPISKLLAKQPGVSVNAQ [V10S]" label_class=Satisfied
input_sequence="AAWQGHLPIVKLLAKQPGVFVNAQ [S20F]" label_class="Not satisfied"
input_sequence="AAWQGHLPIVKLLATQPGVSVNAQ [K15T]" label_class=Satisfied

Is the recorded value of protein stability index equal to or greater than 2 for this variant? AAWQGHLPIVKLLAKKPGVSVNAQ [Q16K]
Satisfied

Determine whether this variant has protein stability index no lower than 2: AAWQHHLPIVKLLAKQPGVSVNAQ [G5H]
Not satisfied

Check this variant for protein stability index at or above 2: AAWQGHLPIVKLLAKQPGVSVNAA [Q24A]
Satisfied
